// data source = patent US8772300B2

Measured EC50 accompanies every entry in the list below.
Target: human mGlu5a receptor (Homo sapiens, UniProt P41594)
Construct: expressed in transfected cells
Sequence (P41594 21-1180 isoform P41594-2 limits assumed): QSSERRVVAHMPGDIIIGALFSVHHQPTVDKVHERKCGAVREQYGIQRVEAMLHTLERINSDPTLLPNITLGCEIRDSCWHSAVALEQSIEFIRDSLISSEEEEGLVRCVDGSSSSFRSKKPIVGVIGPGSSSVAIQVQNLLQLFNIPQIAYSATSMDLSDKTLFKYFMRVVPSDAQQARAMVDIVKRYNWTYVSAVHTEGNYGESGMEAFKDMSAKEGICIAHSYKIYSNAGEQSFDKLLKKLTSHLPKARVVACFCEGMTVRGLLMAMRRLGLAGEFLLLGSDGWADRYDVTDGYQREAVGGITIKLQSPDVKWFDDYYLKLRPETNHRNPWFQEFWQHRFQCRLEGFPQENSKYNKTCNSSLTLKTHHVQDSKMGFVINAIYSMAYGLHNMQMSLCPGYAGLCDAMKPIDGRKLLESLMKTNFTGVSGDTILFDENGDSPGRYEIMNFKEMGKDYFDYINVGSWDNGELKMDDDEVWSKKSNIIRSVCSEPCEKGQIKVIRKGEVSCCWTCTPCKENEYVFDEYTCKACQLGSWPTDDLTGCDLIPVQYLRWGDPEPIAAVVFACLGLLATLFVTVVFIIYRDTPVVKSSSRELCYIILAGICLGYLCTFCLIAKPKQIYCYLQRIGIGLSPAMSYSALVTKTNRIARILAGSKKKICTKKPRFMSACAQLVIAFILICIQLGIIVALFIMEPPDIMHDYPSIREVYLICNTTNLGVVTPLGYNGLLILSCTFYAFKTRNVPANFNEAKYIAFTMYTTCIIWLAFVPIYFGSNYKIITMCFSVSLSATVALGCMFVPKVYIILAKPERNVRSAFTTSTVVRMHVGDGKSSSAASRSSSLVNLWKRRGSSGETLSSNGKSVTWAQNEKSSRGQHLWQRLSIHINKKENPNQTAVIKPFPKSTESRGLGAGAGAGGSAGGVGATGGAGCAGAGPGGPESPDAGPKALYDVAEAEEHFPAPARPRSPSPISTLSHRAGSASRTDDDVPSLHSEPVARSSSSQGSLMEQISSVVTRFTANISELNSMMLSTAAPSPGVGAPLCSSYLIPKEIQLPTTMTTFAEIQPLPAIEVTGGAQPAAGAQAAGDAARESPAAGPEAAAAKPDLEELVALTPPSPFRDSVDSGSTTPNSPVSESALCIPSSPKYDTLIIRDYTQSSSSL
Experiment: Intracellular Ca2+ mobilization assay (mGlu5 PAM)
Assay type: cell-based
Conditions: HEK-293 cells stably transfected with human mGlu5a receptor; L-glutamate added at EC20 (typically around 80 μM) after 10-30 min pre-incubation with test compound; read-out: EC50 (nM) mGlu5PAM
Measurement Type: EC50 (nM)

[[record]]
compound = "CC1(C)CC(O)CCN1C(=O)c1ncc(C#Cc2cc(F)ccc2F)cc1F (racemic)"
target_or_test_system = "human mGlu5a receptor (Homo sapiens, UniProt P41594)"
observed_measurement = 46

[[record]]
compound = "CC(C)(C)NC(=O)c1ncc(C#Cc2ccc(F)cc2)cn1"
target_or_test_system = "human mGlu5a receptor (Homo sapiens, UniProt P41594)"
observed_measurement = 127

[[record]]
compound = "CC1(C)CN(C(=O)c2ncc(C#Cc3ccccc3)cn2)CCC1O (racemic)"
target_or_test_system = "human mGlu5a receptor (Homo sapiens, UniProt P41594)"
observed_measurement = 49

[[record]]
compound = "CN(C(=O)c1ncc(C#Cc2cc(F)ccc2F)cn1)C(C)(C)C"
target_or_test_system = "human mGlu5a receptor (Homo sapiens, UniProt P41594)"
observed_measurement = 35

[[record]]
compound = "CN(C(=O)c1ncc(C#Cc2ccc(F)cc2)cn1)C(C)(C)C"
target_or_test_system = "human mGlu5a receptor (Homo sapiens, UniProt P41594)"
observed_measurement = 34

[[record]]
compound = "CN(C(=O)c1ncc(C#Cc2cccc(F)c2)cn1)C1(C(F)(F)F)CC1"
target_or_test_system = "human mGlu5a receptor (Homo sapiens, UniProt P41594)"
observed_measurement = 42

[[record]]
compound = "CC1(C)CCCN(C(=O)c2ncc(C#Cc3ccccc3)cn2)C1"
target_or_test_system = "human mGlu5a receptor (Homo sapiens, UniProt P41594)"
observed_measurement = 50

[[record]]
compound = "CN(C(=O)c1ncc(C#Cc2ccccc2)cc1C#N)C(C)(C)C"
target_or_test_system = "human mGlu5a receptor (Homo sapiens, UniProt P41594)"
observed_measurement = 34

[[record]]
compound = "CC(C)(C)NC(=O)c1ncc(C#Cc2cccc(F)c2)cn1"
target_or_test_system = "human mGlu5a receptor (Homo sapiens, UniProt P41594)"
observed_measurement = 36

[[record]]
compound = "CC1(C)CN(C(=O)c2ccc(C#Cc3cccc(F)c3)cn2)CCO1"
target_or_test_system = "human mGlu5a receptor (Homo sapiens, UniProt P41594)"
observed_measurement = 46

[[record]]
compound = "CC(NC(=O)c1ccc(C#Cc2ccnc(Cl)c2)cn1)C(F)(F)F (single isomer, unassigned) [Example 59]"
target_or_test_system = "human mGlu5a receptor (Homo sapiens, UniProt P41594)"
observed_measurement = 27

